pIC50: −log10 of the molar value.
The entries that follow carry pIC50 values tested on BDNF/NT-3 growth factors receptor (Homo sapiens), drawn from several published reports.
MEASURED PROPERTY: pIC50

Use the examples below as a reference point.
- CC(C)Oc1ccc(NC(=O)N2CCN(c3ncnc(N)c3/C=N/OCC(=O)N3CCOCC3)CC2)cc1: 4.95
- COc1cc2nccc(Oc3ccc(NC(=O)c4cn(C(C)C)nc(-c5ccc(F)cc5)c4=O)cn3)c2cc1OC: 7.96

A = CNC(=O)c1ccc(-c2cc(OC3CCOCC3)c3c(N)n[nH]c3c2)cc1N1CCN(c2ccccc2)CC1
B = CCOc1ccc(NC(=O)N2CCC(c3ncnc4cc(OC)c(OC)cc34)CC2)cc1
C = CO/N=C/c1c(N)ncnc1N1CCC(NC(=O)Nc2ccc(OC(C)C)cc2)C1 (centres unmarked)
D = CC(Nc1ccn2ncc(-c3cn[nH]c3)c2n1)c1cc(F)ccc1OCCCF (centres unmarked)
E = CC(C)Oc1ccc(NC(=O)N2CCC(c3ncnc4cc(N5CCN(C)CC5)ccc34)CC2)cc1
# rank by pIC50, ascending (min first) A ranking is expressed here by listing the labels in the requested order.
C, B, E, D, A
(C: 4.85, B: 5.66, E: 6.70, D: 8.01, A: 8.82)
